System: Escherichia coli TOP10
Experiment: shrunken log2 fold change of peptide-encoding DNA abundance (4.5 h post-induction vs induction); higher = less antimicrobial activity (less host growth inhibition)
Settings: time post-induction: 4.5 h; library: site-saturation at positions 5, 18, 19, 20
The sequences listed here are annotated with their shrunken log2 fold change.
Reply with the value as a number alone.

For orientation, consider the following solved cases.
Entry sequence: RRIRRRPPRLPRPRPRPYYQPRP
Quantitative readout: -0.617
--
Entry sequence: RRIRLRPPRLPRPRPRPQYCPRP
Quantitative readout: 0.273
--
Entry sequence: RRIRMRPPRLPRPRPRPNGPPRP
Quantitative readout: 0.114
--
Entry sequence: RRIRDRPPRLPRPRPRPYMMPRP
Quantitative readout: -0.297
--
Entry sequence: RRIRRRPPRLPRPRPRPTHMPRP
Quantitative readout: 0.577

query: What value of measured shrunken log2 fold change is listed for RRIRTRPPRLPRPRPRPILTPRP ?
result: -0.139

query: What value of measured shrunken log2 fold change is listed for RRIRMRPPRLPRPRPRPCPKPRP ?
result: -0.214

query: What value of measured shrunken log2 fold change is listed for RRIRCRPPRLPRPRPRPHDIPRP ?
result: -0.00735

query: What value of measured shrunken log2 fold change is listed for RRIRGRPPRLPRPRPRPFFQPRP ?
result: 0.103

---

System: Escherichia coli TOP10;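 further: peptides expressed intracellularly from a pBAD plasmid library in pooled LB shake-flask culture, induced with 0.3% L-arabinose, DNA abundance read by NGS, three biological replicates, DESeq2 with apeglm shrinkage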
Assay: shrunken log2 fold change of peptide-encoding DNA abundance (4.5 h post-induction vs induction); higher = less antimicrobial activity (less host growth inhibition)
Details: time post-induction: 4.5 h; library: site-saturation at positions 5, 18, 19, 20
Assign class by shrunken log2 fold change: not lower than -0.09 means YES; lower than -0.09 means NO.

Entry sequence: RRIRPRPPRLPRPRPRPTRPPRP
Qualitative label: YES
--
Entry sequence: RRIRMRPPRLPRPRPRPACCPRP
Qualitative label: YES
--
Entry sequence: RRIRQRPPRLPRPRPRPYVFPRP
Qualitative label: NO
--
Entry sequence: RRIRNRPPRLPRPRPRPFNKPRP
Qualitative label: NO
--
Entry sequence: RRIRTRPPRLPRPRPRPILDPRP
Qualitative label: YES

query: Reported shrunken log2 fold change at or above -0.09? RRIRIRPPRLPRPRPRPAPHPRP
result: YES

query: Reported shrunken log2 fold change at or above -0.09? RRIRGRPPRLPRPRPRPQNDPRP
result: YES

query: Reported shrunken log2 fold change at or above -0.09? RRIRHRPPRLPRPRPRPGFMPRP
result: YES

query: Reported shrunken log2 fold change at or above -0.09? RRIRWRPPRLPRPRPRPHASPRP
result: YES

query: Reported shrunken log2 fold change at or above -0.09? RRIRTRPPRLPRPRPRPAFIPRP
result: NO

query: Reported shrunken log2 fold change at or above -0.09? RRIRHRPPRLPRPRPRPQIWPRP
result: NO

query: Reported shrunken log2 fold change at or above -0.09? RRIRHRPPRLPRPRPRPMIHPRP
result: NO

query: Reported shrunken log2 fold change at or above -0.09? RRIRDRPPRLPRPRPRPACIPRP
result: YES

query: Reported shrunken log2 fold change at or above -0.09? RRIRGRPPRLPRPRPRPFLDPRP
result: YES

query: Reported shrunken log2 fold change at or above -0.09? RRIRWRPPRLPRPRPRPSAPPRP
result: YES

query: Reported shrunken log2 fold change at or above -0.09? RRIRCRPPRLPRPRPRPRPEPRP
result: YES

query: Reported shrunken log2 fold change at or above -0.09? RRIRTRPPRLPRPRPRPTSDPRP
result: YES

query: Reported shrunken log2 fold change at or above -0.09? RRIRLRPPRLPRPRPRPIAQPRP
result: YES

query: Reported shrunken log2 fold change at or above -0.09? RRIRRRPPRLPRPRPRPCSLPRP
result: YES

query: Reported shrunken log2 fold change at or above -0.09? RRIRIRPPRLPRPRPRPIGIPRP
result: YES

query: Reported shrunken log2 fold change at or above -0.09? RRIRHRPPRLPRPRPRPPKVPRP
result: YES

query: Reported shrunken log2 fold change at or above -0.09? RRIRGRPPRLPRPRPRPVSLPRP
result: YES

query: Reported shrunken log2 fold change at or above -0.09? RRIRERPPRLPRPRPRPNTGPRP
result: NO

query: Reported shrunken log2 fold change at or above -0.09? RRIRVRPPRLPRPRPRPCKLPRP
result: NO

Sourced from the supplement of paper PMC9112550
